test system: HOP-62 NSCLC; assay: NCI tumour cell line growth inhibition, 48 h
Where a SMILES comes first, the peptide text is derived from it. [ ]: non-standard residue; d: D form. pGlu = O=C1CC[CH](C(=O)O)N1; Thz = O=C(O)[CH]1CSCN1
For each of the molecules below, state its TGI.

Input: Need TGI of CCOC(=O)c1c(N)sc2c1CC(C)CC2 (configuration not stated) , thanks.
Output: > 100 µM

Input: // lookup TGI for O=C1c2ccccc2-c2c3c(cc4ccnc1c24)OCO3
Output: 21.1 µM

Input: // query TGI value for entry O=C1CCC(C(=O)N2CSCC2C(=O)O)N1 (configuration not stated) ([pGlu]-[Thz]-OH; configuration not given here)
Output: > 100 µM

Input: # get_value(readout='TGI', item= CN(C)c1ccc(/C=N/NC(N)=S)nc1 )
Output: > 100 µM

Input: Recorded TGI of COc1ccc2c(c1)c(-c1nc(-c3cn(C)c4ccncc34)cs1)cn2C , please.
Output: 3.62 µM

Input: State the recorded TGI for this entry: CC(=O)OC12C(C)=C(C)C(=O)N1c1ccccc1N2C(C)=O (configuration not stated)
Output: > 100 µM

Input: Bench note: what TGI did C=C1C(C(=O)OC)[C@H]1C(=O)OC (some centres not stated) show?
Output: > 100 µM

Input: Look up TGI for this molecule: Cn1c(-c2ccco2)ccc1-c1ccc(C=O)o1
Output: > 100 µM

Input: Which TGI value is on record for Cn1c(-c2ccc(C=O)o2)ccc1-c1ccc(C=O)o1 ?
Output: > 100 µM

Input: # lookup: TGI of O=C(c1c(F)c(F)c(F)c(F)c1F)c1c(F)c(F)c(F)c(F)c1F
Output: 3.49 µM

Input: TGI lookup needed for CCOC(=O)C12CCCC1(O)N(NC(=O)OC)C(C)=C2C(=O)OC (configuration not stated) , thanks.
Output: > 100 µM

Input: Could you tell me which TGI is on file for CCN1CCN(CCNc2nccc(-c3c(-c4ccc(F)c(O)c4)nc4occn34)n2)S1(=O)=O ?
Output: > 100 µM

Input: Requested read-out: TGI. Entry: c1ccc2c3c(ccc2c1)-c1[nH]ncc1CCO3
Output: > 91.9 µM

Input: Please report the recorded TGI for CCOC(=O)c1ccc(-n2cnc(-c3ccc([N+](=O)[O-])cc3)c2)cc1 .
Output: > 100 µM

Input: What TGI value was documented for this molecule, CC(=O)Nc1nc(C)c(S(=O)(=O)NC(=O)NC2NC(=O)NC2=O)s1 (configuration not stated) ?
Output: > 100 µM

Input: Recorded TGI of CO/C=C(/C(=O)OC)[C@@H]1C[C@@H]1c1ccc2ccccc2c1 , please.
Output: > 100 µM

Input: Return reported TGI; argument: C=C1C2CCC3C4(C)CCCC(C)(C(=O)O)C4CCC3(C2)C1OC(=O)/C(C)=C/C (configuration not stated)
Output: > 100 µM

Input: // TGI lookup, key: COc1cc(-c2nn(-c3cccc(NC(=O)Nc4ccc(Cl)c(C(F)(F)F)c4)c3)cc2-c2ccncc2)ccc1Cl
Output: 6.49 µM

Input: Look up TGI: Nc1nc(Cl)cc(NCC2(CCO)CCC2)n1
Output: > 100 µM

Input: Fill in: TGI of NC(=S)N1N=C2CCCCCC[C@@H]2[C@H]1c1ccccc1 is ___
Output: > 100 µM

Input: # TGI lookup, item Cc1cc2c(F)c(Oc3ncnc(Nc4ccc(N5C[C@@H](C)N[C@@H](C)C5)cc4)c3C#N)cc(F)c2[nH]1
Output: 9.87 µM

Input: Form field: reported TGI of Cc1ccc(CNc2ccc3nc(CCC4CCCCC4)[nH]c3c2)cc1
Output: 4.83 µM
